system: A673; assay: Inhibition of cell proliferation of human A673 cells incubated for 72 hrs by CyQUANT assay; assay type: functional, cell-based; conditions: A673, 72 h
// reported IC50 per item
endpoint: IC50

| compound | reported |
| --- | --- |
| CC1(C)CCNC[C@H]1Nc1ncc(C(F)(F)F)c(-c2c[nH]c3ccccc23)n1 | 200 nM |
| CC1CCC(Nc2ncc(Cl)c(-c3c[nH]c4ccccc34)n2)CN1 (stereo not given) | 20 nM |
| CC(C)n1cc(-c2nc(N[C@H]3CCCNC3)ncc2Cl)c2ccccc21 | 200 nM |
| FC(F)(F)c1cnc(N[C@H]2CNC[C@@H](c3nnc4ccccn34)C2)nc1-c1c[nH]c2ccccc12 | 200 nM |
| C[C@H]1CCNC[C@@H]1Nc1ncc(Cl)c(-c2c[nH]c3ccccc23)n1 | 200 nM |

###

Each record here notes measured IC50.
system: A673; assay: Inhibition of cell proliferation of human A673 cells incubated for 72 hrs by CyQUANT assay; type: functional, cell-based; conditions: A673, 72 h

| compound | IC50 |
| --- | --- |
| Cn1cc(-c2ccc3[nH]cc(-c4nc(N[C@H]5CCCNC5)ncc4C(F)(F)F)c3c2)cn1 | 0.2 µM |
| Cc1[nH]c2ccccc2c1-c1nc(N[C@H]2CCCNC2)ncc1Cl | 0.02 µM |
| CCc1cnc(N[C@@H]2CCCNC2)nc1-c1n[nH]c2ncccc12 | 0.02 µM |
| O=C(O)c1cccc2c(-c3nc(N[C@H]4CCCNC4)ncc3Cl)c[nH]c12 | 0.2 µM |
| FC(F)(F)c1cnc(N[C@H]2CCCNC2)nc1-c1c[nH]c2ccc(Cl)cc12 | < 0.02 µM |
| OC1CCC(c2cccc3c(-c4nc(N[C@H]5CCCNC5)ncc4C(F)(F)F)c[nH]c23)CC1 (some centres undefined) | < 0.02 µM |
| CNC(=O)[C@H]1CNC[C@@H](Nc2ncc(C(F)(F)F)c(-c3c[nH]c4ccccc34)n2)C1 | 0.2 µM |
| O[C@@H]1CCNC[C@H]1Nc1ncc(Cl)c(-c2c[nH]c3ccccc23)n1 | 0.2 µM |
| Cc1[nH]ncc1-c1cccc2c(-c3nc(N[C@@H]4CCCNC4)ncc3C(F)(F)F)c[nH]c12 | < 0.02 µM |

###

The entries below are paired with their reported IC50.
test system: A673; assay: Inhibition of cell proliferation of human A673 cells incubated for 72 hrs by CyQUANT assay; type: functional, cell-based; settings: A673, 72 h

| line_notation | value_unit | readout_qualifier | IC50 |
| --- | --- | --- | --- |
| CS(=O)(=O)c1cccc2c(-c3nc(N[C@H]4CCCNC4)ncc3C(F)(F)F)c[nH]c12 | nM | < | 20 |
| Cc1cccc2c(-c3nc(N[C@H]4CCCNC4)ncc3CC(C)C)c[nH]c12 | nM | = | 200 |
| Fc1cccc2c(-c3nc(N[C@H]4CCCNC4)ncc3Cl)n[nH]c12 | nM | < | 20 |
| O[C@H]1CC[C@@H](c2cccc3c(-c4nc(N[C@H]5CCCNC5)ncc4C(F)(F)F)c[nH]c32)CC1 | nM | = | 200 |
| FC(F)(F)Cc1cnc(N[C@H]2CCCNC2)nc1-c1n[nH]c2ccccc12 | nM | = | 20 |
| Cc1cccc2c(-c3nc(N[C@H]4CCCNC4)ncc3F)c[nH]c12 | nM | = | 200 |
| CCc1cnc(N[C@H]2CCCNC2)nc1-c1n[nH]c2ccccc12 | nM | = | 20 |
| Fc1cccc2c(-c3nc(N[C@H]4CCCNC4)ncc3C(F)(F)F)n[nH]c12 | nM | < | 20 |
| FC(F)(F)c1cnc(N[C@H]2CCCNC2)nc1-c1n[nH]c2ccccc12 | nM | = | 20 |
| FC(F)(F)c1cnc(N[C@H]2CCCNC2)nc1-c1c[nH]c2c(Cl)cccc12 | nM | < | 20 |
| C[C@@H]1CNC[C@@H](Nc2ncc(Cl)c(-c3c[nH]c4ccccc34)n2)C1 | nM | = | 20 |
| Clc1cnc(N[C@H]2CCCNC2)nc1-c1c[nH]c2ccc(N3CCOCC3)cc12 | nM | = | 20 |
| Cc1ccc2[nH]cc(-c3nc(N[C@H]4CCCNC4)ncc3Cl)c2c1 | nM | = | 200 |

###

system: A673; experiment: Inhibition of cell proliferation of human A673 cells incubated for 72 hrs by CyQUANT assay; type: functional, cell-based; conditions: A673, 72 h
Documented IC50 across a set of compounds
endpoint: IC50

| line_notation | endpoint | reported |
| --- | --- | --- |
| CC(C)c1cnc(N[C@H]2CCCNC2)nc1-c1c[nH]c2ccccc12 | IC50 | 0.2 µM |
| Clc1cnc(N[C@H]2CCCNC2)nc1-c1cn(-c2ccccc2)c2ccccc12 | IC50 | 0.2 µM |
| CC(=O)c1cccc2c(-c3nc(N[C@H]4CCCNC4)ncc3Cl)c[nH]c12 | IC50 | < 0.02 µM |
| CCc1cnc(N[C@H]2CCCNC2)nc1-c1c[nH]c2ncc(F)cc12 | IC50 | 0.2 µM |
| F[C@@H]1CCNC[C@H]1Nc1ncc(Cl)c(-c2c[nH]c3ccccc23)n1 | IC50 | 0.02 µM |

###

test system: A673; experiment: Inhibition of cell proliferation of human A673 cells incubated for 72 hrs by CyQUANT assay; type: functional, cell-based; details: A673, 72 h
Overview of reported IC50 across a group of molecules:

| line_notation | measurement_target | value_unit | readout_qualifier | IC50 |
| --- | --- | --- | --- | --- |
| Clc1cnc(N[C@H]2CCCNC2)nc1-c1c[nH]c2ccncc12 | A673 | nM | = | 20 |
| CNC(=O)[C@H]1CNC[C@H](Nc2ncc(C(F)(F)F)c(-c3c[nH]c4ccccc34)n2)C1 | A673 | nM | = | 20 |
| N#Cc1ccc2c(-c3nc(N[C@H]4CCCNC4)ncc3Cl)c[nH]c2c1 | A673 | nM | < | 20 |
| CCOP(=O)(OCC)c1ccc2[nH]cc(-c3nc(N[C@H]4CCCNC4)ncc3C(F)(F)F)c2c1 | A673 | nM | = | 200 |
| Cn1cc(-c2ccc3c(-c4nc(N[C@H]5CCCNC5)ncc4C(F)(F)F)c[nH]c3c2)cn1 | A673 | nM | < | 20 |

###

tested on: A673; experiment: Inhibition of cell proliferation of human A673 cells incubated for 72 hrs by CyQUANT assay; type: functional, cell-based; details: A673, 72 h

| molecule | readout_qualifier | IC50 [µM] |
| --- | --- | --- |
| FC(F)(F)c1cnc(N[C@H]2CCCNC2)nc1-c1c[nH]c2cc(-c3cn[nH]c3)ccc12 | = | 0.02 |
| CC1NCCCC1Nc1ncc(Cl)c(-c2c[nH]c3ccccc23)n1 (stereo not given) | = | 0.02 |
| CNC(=O)c1cccc2c(-c3nc(N[C@H]4CCCNC4)ncc3C(F)(F)F)c[nH]c12 | = | 0.02 |
| Cc1cccc2c(-c3nc(N[C@H]4CCCNC4)ncc3Cl)c[nH]c12 | < | 0.02 |
| C[C@@H](O)c1cnc(N[C@H]2CCCNC2)nc1-c1c[nH]c2ccccc12 | = | 0.2 |
| Fc1cnc2[nH]cc(-c3nc(N[C@H]4CCCNC4)ncc3C(F)(F)F)c2c1 | < | 0.02 |
| Brc1cnc(N[C@@H]2CCCNC2)nc1-c1c[nH]c2ccccc12 | < | 0.02 |
| Clc1cnc(N[C@H]2CCCNC2)nc1-c1cnn2ccccc12 | = | 0.02 |
| Clc1cnc(N[C@H]2CCCNC2)nc1-c1c[nH]c2c(N3CCOCC3)cccc12 | = | 0.02 |
| N#Cc1cccc2c(-c3nc(N[C@H]4CCCNC4)ncc3C(F)(F)F)c[nH]c12 | < | 0.02 |

###

IC50 reference
system: A673; assay: Inhibition of cell proliferation of human A673 cells incubated for 72 hrs by CyQUANT assay; format: functional, cell-based; details: A673, 72 h

| line_notation | IC50 |
| --- | --- |
| Fc1cc2[nH]nc(-c3nc(N[C@H]4CCCNC4)ncc3C(F)(F)F)c2cc1F | < 20 nM |
| Cc1cccc2c(-c3nc(N[C@H]4CCCNC4)ncc3C(F)(F)F)c[nH]c12 | < 20 nM |
| N#Cc1ccc2c(-c3nc(N[C@@H]4CCCNC4)ncc3C(F)(F)F)c[nH]c2c1-c1ccnnc1 | < 20 nM |
| FC(F)(F)c1cnc(N[C@@H]2CNC[C@H](c3nnc4ccccn34)C2)nc1-c1c[nH]c2ccccc12 | ≤ 20 nM |
| Clc1cnc(N[C@H]2CCCNC2)nc1-c1c[nH]c2ccccc12 | ≤ 20 nM |
